This collection of values is drawn from PubChem BioAssay (NCI).

Property: TGI; scope: individual compounds
tested on: OVCAR-8 ovarian; test: NCI tumour cell line growth inhibition, 48 h
Where a SMILES comes first, the peptide text is derived from it. [ ]: non-standard residue; d: D form.
readout_label: TGI

[[record]]
compound = "CSCC[C@H](NC(=O)[C@@H](N)CC(N)=O)C(=O)N[C@@H](Cc1c[nH]c2ccccc12)C(=O)N[C@@H](CCC(N)=O)C(=O)N[C@@H](CCC(=O)O)C(=O)N[C@H](C(=O)NCC(=O)N[C@@H](CCCCN)C(=O)N[C@H](C)C(=O)O)C(C)C (H-NMWQEVGK[dA]-OH)"
readout_label = "TGI"
readout_value = "> 100 µM"

[[record]]
compound = "COc1ccc(C2NC(N)=C(C#N)C3=C2C(C)CCC3)cc1OC (stereo not drawn)"
readout_label = "TGI"
readout_value = "> 100 µM"

[[record]]
compound = "O=C(N/N=C/c1ccc(N(CCCl)CCCl)cc1)c1ccc(C(=O)N/N=C/c2ccc(N(CCCl)CCCl)cc2)cc1"
readout_label = "TGI"
readout_value = "> 100 µM"


###

test system: MDA-MB-231 breast; experiment: NCI tumour cell line growth inhibition, 48 h
readout_label: TGI (µM)

[[record]]
compound = "CC(C)c1cc(C(C)C)c(B(c2ccccc2)c2ccccc2)c(C(C)C)c1B(c1ccccc1)c1ccccc1"
readout_label = "TGI"
inequality_operator = ">"
readout_value = 100

[[record]]
compound = "Cc1nccn1S(=O)(=O)c1ccc(Cl)cc1"
readout_label = "TGI"
inequality_operator = "="
readout_value = 78.9

[[record]]
compound = "CNC(=O)C1OC(n2cnc3c(NCc4cccc(I)c4)nc(Cl)nc32)C(O)C1O (stereo not given)"
readout_label = "TGI"
inequality_operator = "="
readout_value = 66.6

[[record]]
compound = "CCCCCCCCCCOc1ccc(N=Nc2nnc(-c3ccc(OCCCCC)cc3)s2)cc1"
readout_label = "TGI"
inequality_operator = ">"
readout_value = 100

[[record]]
compound = "Cc1nc2sc(C(=O)Nc3ccccc3)c(N)c2cc1C(=O)c1ccccc1"
readout_label = "TGI"
inequality_operator = ">"
readout_value = 50


###

Listed next: entries and their corresponding TGI.
test system: IGROV1 ovarian; assay: NCI tumour cell line growth inhibition, 48 h
readout_label: TGI

[[record]]
molecule = "CCOC(=O)CCC(NC(=O)c1ccc(Nc2nc3ccccc3nc2C(=O)OCC)s1)C(=O)OCC (stereo not given)"
readout_value = "> 100 µM"

[[record]]
molecule = "Cc1cc(S(=O)(=O)Nc2n[nH]c(Nc3ccccc3)n2)c(SSc2cc(Cl)c(C)cc2S(=O)(=O)Nc2n[nH]c(Nc3ccccc3)n2)cc1Cl"
readout_value = "> 100 µM"

[[record]]
molecule = "CC1OC(=O)N2CCC=CC12 (stereo not given)"
readout_value = "> 100 µM"

[[record]]
molecule = "CCCCCCCCCCOc1ccc(N=Nc2nnc(-c3ccc(OCCCCC)cc3)s2)cc1"
readout_value = "> 100 µM"

[[record]]
molecule = "Nc1c(C(=O)O)nnc2cc(Cl)ccc12"
readout_value = "> 100 µM"


###

tested on: HCT-116 colon; assay: NCI tumour cell line growth inhibition, 48 h
# TGI annotations
readout_label: TGI (µM)

[[record]]
compound = "CN1C/C(=C\\c2cccs2)C(=O)/C(=C/c2cccs2)C1"
readout_label = "TGI"
unit_of_measurement = "µM"
inequality_operator = "="
readout_value = 34.4

[[record]]
compound = "C=C(CN1CCN(c2ccc(F)c(Cl)c2)CC1)c1ccc(C(=O)Nc2ccccc2N)cc1"
readout_label = "TGI"
unit_of_measurement = "µM"
inequality_operator = "="
readout_value = 10.3

[[record]]
compound = "CCCCCCCCc1cc(O)ccc1O"
readout_label = "TGI"
unit_of_measurement = "µM"
inequality_operator = "="
readout_value = 27.9

[[record]]
compound = "C[C@H]1CCC2C(OC(=O)[C@@H]2CN(C)C)[C@]2(C)C(=O)C=CC12O (stereo partly specified)"
readout_label = "TGI"
unit_of_measurement = "µM"
inequality_operator = "="
readout_value = 12.5

[[record]]
compound = "O=C1C(OC(=O)c2ccccc2)=C(c2ccc(O)cc2)C(=O)C(OC(=O)c2ccccc2)=C1c1ccc(O)cc1"
readout_label = "TGI"
unit_of_measurement = "µM"
inequality_operator = ">"
readout_value = 100

[[record]]
compound = "NC1=Nc2ccccc2Sc2ccccc21"
readout_label = "TGI"
unit_of_measurement = "µM"
inequality_operator = ">"
readout_value = 100

[[record]]
compound = "CC(C)c1cc(C(C)C)c(B(c2ccccc2)c2ccccc2)c(C(C)C)c1B(c1ccccc1)c1ccccc1"
readout_label = "TGI"
unit_of_measurement = "µM"
inequality_operator = ">"
readout_value = 100

[[record]]
compound = "N=C1C=C(N)C(=O)c2ccccc21"
readout_label = "TGI"
unit_of_measurement = "µM"
inequality_operator = "="
readout_value = 0.451

[[record]]
compound = "Cc1nc2sc(C(=O)Nc3ccccc3)c(N)c2cc1C(=O)c1ccccc1"
readout_label = "TGI"
unit_of_measurement = "µM"
inequality_operator = ">"
readout_value = 50

[[record]]
compound = "Cc1nc(-n2nc(-c3ccccc3)cc2-c2ccccc2)sc1C(=O)CC(=O)C(=O)Nc1ccc(O)cc1"
readout_label = "TGI"
unit_of_measurement = "µM"
inequality_operator = ">"
readout_value = 100

[[record]]
compound = "COc1ccc(/C=C2\\OC(=O)C(Cl)=C2c2ccc(OC)c(Cl)c2)cc1"
readout_label = "TGI"
unit_of_measurement = "µM"
inequality_operator = ">"
readout_value = 100

[[record]]
compound = "CC(=O)OC1=C(CC(C)(C)C)C(=O)c2ccccc2C1=O"
readout_label = "TGI"
unit_of_measurement = "µM"
inequality_operator = "="
readout_value = 75.5

[[record]]
compound = "O=[N+]([O-])c1ccc(Nc2cccc3c2[nH]c2c(-c4ccccc4)nccc23)c([N+](=O)[O-])c1"
readout_label = "TGI"
unit_of_measurement = "µM"
inequality_operator = ">"
readout_value = 100

[[record]]
compound = "COc1cc(-c2nc(SC)nc3c2CCc2ccccc2-3)cc(OC)c1OC"
readout_label = "TGI"
unit_of_measurement = "µM"
inequality_operator = ">"
readout_value = 100

[[record]]
compound = "O=C(CCc1cc(-c2ccc(F)cc2)n[nH]1)N(Cc1ccccc1)Cc1ccccc1"
readout_label = "TGI"
unit_of_measurement = "µM"
inequality_operator = ">"
readout_value = 100

[[record]]
compound = "CC/C(C)=C1\\CCC(CN(C)C)C1=O (stereo unspecified)"
readout_label = "TGI"
unit_of_measurement = "µM"
inequality_operator = "="
readout_value = 31.7

[[record]]
compound = "CC(C)(C)OC(=O)NNCC(O)COc1ccccc1 (stereo unspecified)"
readout_label = "TGI"
unit_of_measurement = "µM"
inequality_operator = ">"
readout_value = 100

[[record]]
compound = "O=C(N/C(=C\\c1ccc(F)cc1)c1nc2ccccc2[nH]1)c1ccccc1"
readout_label = "TGI"
unit_of_measurement = "µM"
inequality_operator = ">"
readout_value = 100

[[record]]
compound = "CCCCOc1ccc(S(=O)(=O)/N=C(\\NO)Nc2ccc(Cl)cc2)cc1"
readout_label = "TGI"
unit_of_measurement = "µM"
inequality_operator = "="
readout_value = 30.6

[[record]]
compound = "CCOC(=O)CC(C)C1(C=O)CCCCC1=O (stereo unspecified)"
readout_label = "TGI"
unit_of_measurement = "µM"
inequality_operator = ">"
readout_value = 100

[[record]]
compound = "CC1=C(SCCC(=O)OC(C[Se]C2=C(C)C(=O)c3ccccc3C2=O)C(=O)NC(C)(C)C)C(=O)c2ccccc2C1=O (stereo unspecified)"
readout_label = "TGI"
unit_of_measurement = "µM"
inequality_operator = "="
readout_value = 1.44


###

system: RXF 393 renal; experiment: NCI tumour cell line growth inhibition, 48 h
Decide by TGI: equal to or exceeding 30 µM means true, less means false.

[[record]]
compound = "c1ccc(-c2cc3n4c(-c5ccccc5)nn(-c5ccccc5)c4cnc-3n2)cc1"
label = "true"

[[record]]
compound = "COc1ccc(C2=Nc3c(nc(SC)[nH]c3=O)NC(c3ccccc3)C2)cc1 (stereo not given)"
label = "true"

[[record]]
compound = "CC1=C2C3OC(=O)C(C)C3C(O)C[C@@]2(C)C(=O)CC1 (stereo not given in full)"
label = "true"

[[record]]
compound = "N#CC(C#N)C(c1ccccc1)c1ccccc1"
label = "true"

[[record]]
compound = "CC1(C2CCC3(C)C(C2)C3Sc2ccccc2)OCCO1 (stereo not given)"
label = "true"

[[record]]
compound = "CSc1c(C)n([O-])c2cc(Cl)c(Cl)cc2[n+]1=O"
label = "true"

[[record]]
compound = "CC1=NN(c2nc(N)nc(-c3cc4ccccc4oc3=N)n2)C(C)(C)C1"
label = "true"

[[record]]
compound = "CNc1nc(-c2ccc3c(N)n[nH]c3c2)cc(N2C[C@@H](C(=O)NC3CCCCC3)CC[C@H]2C)n1"
label = "false"

[[record]]
compound = "CC1C(c2ccccc2)NC(c2ccccc2)CC1(N)C#N (stereo not given)"
label = "true"

[[record]]
compound = "Cc1ccc(S(=O)(=O)NC(=O)NC(CC(=O)O)C(=O)O)cc1 (stereo not given)"
label = "true"

[[record]]
compound = "Nc1ccn(CC(O)c2cc3ccccc3[nH]2)c(=O)n1 (stereo not given)"
label = "true"

[[record]]
compound = "O=C(O)C1CSC2(CCCN(Cc3ccccc3)C2)N1 (stereo not given)"
label = "true"

[[record]]
compound = "CC[C@@H](C(=O)[C@@H](C)[C@@H](O)[C@H](C)[C@@H]1O[C@@H]([C@@H](CC)C(=O)O)CC[C@@H]1C)[C@H]1O[C@]2(C=C[C@@H](O)[C@]3(CC[C@@](C)([C@H]4CC[C@](O)(CC)[C@H](C)O4)O3)O2)[C@H](C)C[C@@H]1C"
label = "false"

[[record]]
compound = "Cc1ccc(S(=O)(=O)N/N=C\\c2c3ccccc3[n+](C)c3ccccc23)cc1"
label = "true"

[[record]]
compound = "C=C(CN1CCN(c2ccc(F)c(Cl)c2)CC1)c1ccc(C(=O)Nc2ccccc2N)cc1"
label = "true"

[[record]]
compound = "N/C(CC(=O)NOC(=O)c1ccccc1)=N/OC(=O)c1ccccc1"
label = "true"

[[record]]
compound = "Cc1c(C2CCSc3ccccc3N2)sc2ccccc12 (stereo not given)"
label = "true"

[[record]]
compound = "O=S(=O)(Nc1ccc(Cl)c(Cl)c1)c1ccc(-c2cnc(C3CC3)o2)cc1"
label = "false"

